method: Plasma pharmacokinetics of SHR9146 in mice (LC-MS/MS, non-compartmental analysis)
Assay type: in vivo, ICR mice
measurement.context: female, ICR, mouse, plasma, po, 80 mg/kg, 80 mg/kg i.g. single dose; female mice; plasma; read-out: Cmax
Procedure: ICR mice with body weight 16–26 g were supplied by Shanghai Lingchang Biotechnology Co., Ltd. (animal breeding license number SCXK (Shanghai) 2013-0018) and housed at Shanghai Institute of Materia Medica, Chinese Academy of Sciences [animal use license number SYXK (Shanghai) 2015-0027]. The mice used in this study were fasted overnight for 12 h but had free access to water. Food was supplied 4 h post-dose. […]
property.label: Cmax (ng/mL)
Numbers only, in ng/mL.

What value of Cmax has been reported for the following compound? `OCCn1cc(-c2ccc(N3CCC([C@H]4c5c(F)cccc5-c5cncn54)CC3)cc2)cn1`
18700
